meta.source: PubChem BioAssay (EPA / NIEHS)

Read-out: Monocyte Chemoattractant Protein-1 (MCP1), CCL2 (gene 6347)
assay.procedure: BSK_LPS_MCP1: BioMAP Diversity Plus: LPS Assay for Monocyte Chemoattractant Protein-1 (MCP1) Biomarker Activity (AID 2283081)
measurement.context: primary human HUVEC with PBMC; actives raise or lower the signal
Active and inactive are the calls of the source. How the source made its calls: active means hit-call score of the fitted dose curve at least 0.9, where 1 is the maximum; inactive means score below 0.9.
Output constraint: value belongs to active, inactive

Given `CCNC(=O)NC(=O)C(C#N)=NOC` , state the outcome it received in this test.
inactive

Given COCC(=O)N(c1c(C)cccc1C)C(C)C(=O)OC (configuration not stated) , state the outcome it received in this test.
inactive

Given COCC(C)N(C(=O)CCl)c1c(C)csc1C (configuration not stated) , state the outcome it received in this test.
inactive

Given `N#Cc1c[nH]cc1-c1cccc2c1OC(F)(F)O2` , state the outcome it received in this test.
active

Given CCCCC(O)(Cn1cncn1)c1ccc(Cl)cc1Cl (configuration not stated) , state the outcome it received in this test.
inactive

Given `CS(=O)(=O)c1cc(C(F)(F)F)ccc1C(=O)c1cnoc1C1CC1` , state the outcome it received in this test.
inactive

Given `COP(=S)(OC)Oc1ccc([N+](=O)[O-])c(C)c1` , state the outcome it received in this test.
active

Given CCN(CC)C(=O)C(C)Oc1cccc2ccccc12 (configuration not stated) , state the outcome it received in this test.
inactive

New cases:
Given `CCSC(=O)N1CCCCCC1` , state the outcome it received in this test.
inactive

Given `CS(=O)(=O)c1ccc(C(=O)C2C(=O)CCCC2=O)c([N+](=O)[O-])c1` , state the outcome it received in this test.
inactive

Given `Clc1cccc(C(Cl)(Cl)Cl)n1` , state the outcome it received in this test.
inactive

Given `CN=C=S` , state the outcome it received in this test.
inactive

Given CC(C)=CC1C(C(=O)OCc2coc(Cc3ccccc3)c2)C1(C)C (configuration not stated) , state the outcome it received in this test.
inactive

Given `N#CN=C1SCCN1Cc1ccc(Cl)nc1` , state the outcome it received in this test.
inactive

====

assay.procedure: CCTE_Simmons_MITO_max_resp_rate: CCTE's HepG2 Seahorse XF Respirometric Screening Assay at Maximal Respiratory State [uncoupled], Simmons Lab (AID 2284002)
measurement.context: actives raise or lower the signal
Activity calls are given as the source filed them. Rule for the calls: active = hit-call score of the fitted dose curve at least 0.9, where 1 is the maximum; inactive = score below 0.9.
Output constraint: value belongs to 1 = active, 0 = inactive

Given CCCCC(O)(Cn1cncn1)c1ccc(Cl)cc1Cl (stereo not given) , state the outcome it received in this test.
1

Given CCCCC(C#N)(Cn1cncn1)c1ccc(Cl)cc1 (stereo not given) , state the outcome it received in this test.
0

Given CCNP(=S)(OC)O/C(C)=C/C(=O)OC(C)C (stereo not given) , state the outcome it received in this test.
1

New cases:
Given `Cn1c(-c2ccccc2)cc(-c2ccccc2)[n+]1C` , state the outcome it received in this test.
1

Given `CCOP(=S)(OCC)Oc1nc(Cl)n(C(C)C)n1` , state the outcome it received in this test.
1

Given COCC(C)N(C(=O)CCl)c1c(C)csc1C (stereo not given) , state the outcome it received in this test.
0

====

Read-out: E-selectin (Homo sapiens)
assay.procedure: BSK_LPS_Eselectin: BioMAP Diversity Plus: LPS Assay for Eselectin Biomarker Activity (AID 2283077)
measurement.context: primary human HUVEC with PBMC; actives raise or lower the signal
Activity calls are given as the source filed them. Rule for the calls: active = hit-call score of the fitted dose curve at least 0.9, where 1 is the maximum; inactive = score below 0.9.
Output constraint: value belongs to true for active, false for inactive

Completed entries (count: 6):
Given CC(C)(C)C(=O)C(Oc1ccc(Cl)cc1)n1cncn1 (configuration not stated) , state the outcome it received in this test.
false

Given `CS(=O)(=O)c1cc(C(F)(F)F)ccc1C(=O)c1cnoc1C1CC1` , state the outcome it received in this test.
false

Given `CN/C(=N\[N+](=O)[O-])NCc1cnc(Cl)s1` , state the outcome it received in this test.
false

Given `CCOc1nc(C(Cl)(Cl)Cl)ns1` , state the outcome it received in this test.
false

Given CC1(C)CCC(=Cc2ccc(Cl)cc2)C1(O)Cn1cncn1 (configuration not stated) , state the outcome it received in this test.
false

Given CCCCC(C#N)(Cn1cncn1)c1ccc(Cl)cc1 (configuration not stated) , state the outcome it received in this test.
false

New cases:
Given `CC(C)N1C(=O)N(c2ccccc2)CSC1=NC(C)(C)C` , state the outcome it received in this test.
true

Given `CCOc1nc(F)cc2nc(S(=O)(=O)Nc3c(Cl)cccc3Cl)nn12` , state the outcome it received in this test.
true

Given `COc1ccc(-c2ccccc2)cc1NNC(=O)OC(C)C` , state the outcome it received in this test.
false

Given `Nc1c(Cl)c(Cl)nc(C(=O)O)c1Cl` , state the outcome it received in this test.
false

Given `COP(=S)(OC)Oc1ccc([N+](=O)[O-])c(C)c1` , state the outcome it received in this test.
false

Given COCC(C)N(C(=O)CCl)c1c(C)csc1C (configuration not stated) , state the outcome it received in this test.
false

====

Read-out: Glutamate-cysteine ligase regulatory (GCLM), GCLM (gene 2730)
assay.procedure: LTEA_HepaRG_GCLM: Life Technologies and Expression Analysis (LTEA) Assay for Glutamate-cysteine ligase regulatory (GCLM) using HepaRG (AID 2283500)
measurement.context: mRNA level, 48 h; actives raise or lower the signal
Activity calls are given as the source filed them. Rule for the calls: active = hit-call score of the fitted dose curve at least 0.9, where 1 is the maximum; inactive = score below 0.9.
Output constraint: value belongs to active, inactive

Completed entries (count: 4):
Given `COc1cc(Cl)c(OC)cc1Cl` , state the outcome it received in this test.
inactive

Given CCN(CC)C(=O)C(C)Oc1cccc2ccccc12 (stereo not drawn) , state the outcome it received in this test.
inactive

Given `CCNC(=O)NC(=O)C(C#N)=NOC` , state the outcome it received in this test.
inactive

Given `Cc1nc(N(C)C)nc(OC(=O)N(C)C)c1C` , state the outcome it received in this test.
inactive

New cases:
Given `CC(C)N1C(=O)N(c2ccccc2)CSC1=NC(C)(C)C` , state the outcome it received in this test.
active

Given COCC(C)N(C(=O)CCl)c1c(C)csc1C (stereo not drawn) , state the outcome it received in this test.
inactive

Given `CC(C)Nc1nc(Cl)nc(NC(C)C)n1` , state the outcome it received in this test.
inactive

Given `COc1cc(OC)nc(NC(=O)NS(=O)(=O)c2ncccc2OCC(F)(F)F)n1` , state the outcome it received in this test.
inactive

====

assay.procedure: CCTE_Shafer_MEA_dev_bursting_electrodes_number: CCTE's Neural Network Formation Assay for Number of Bursting Electrodes, Shafer Lab (AID 2284043)
Results filed as inconclusive are left out. Active and inactive are the calls of the source. The calls were made as follows: active = hit-call score of the fitted dose curve at least 0.9, where 1 is the maximum; inconclusive = response in the unintended direction; inactive = score below 0.9.
Output constraint: value belongs to active, inactive

Given `CS(=O)(=O)c1ccc(C(=O)C2C(=O)CCCC2=O)c([N+](=O)[O-])c1` , state the outcome it received in this test.
inactive

Given `CN/C(=N\[N+](=O)[O-])NCc1cnc(Cl)s1` , state the outcome it received in this test.
inactive

Given `CCNC(=O)NC(=O)C(C#N)=NOC` , state the outcome it received in this test.
inactive

Given CC1(C)C(C(=O)OC(C#N)c2cccc(Oc3ccccc3)c2)C1(C)C (stereo not drawn) , state the outcome it received in this test.
active

New cases:
Given `C=C(C)CN(CC)c1c([N+](=O)[O-])cc(C(F)(F)F)cc1[N+](=O)[O-]` , state the outcome it received in this test.
active

Given `COP(=S)(OC)SCn1nnc2ccccc2c1=O` , state the outcome it received in this test.
inactive

Given `N#CN=C1SCCN1Cc1ccc(Cl)nc1` , state the outcome it received in this test.
inactive

Given CC(C)(C)C(=O)C(Oc1ccc(Cl)cc1)n1cncn1 (stereo not drawn) , state the outcome it received in this test.
active

====

Read-out: Thrombomodulin, THBD (gene 7056)
assay.procedure: BSK_3C_Thrombomodulin: BioMAP Diversity Plus: 3C Assay for Thrombomodulin Biomarker Activity (AID 2283029)
measurement.context: primary human endothelial cells (HUVEC); actives raise or lower the signal
Method: BSK_3C is a cell-based, multiplexed-readout assay that uses umbilical vein endothelium, a human vascular primary cell, with measurements taken at 24 hours after chemical dosing in a 96-well plate.BSK_3C_Thrombomodulin is an assay component measured in the BSK_3C assay. It measures Thrombomodulin antibody related to regulation of gene expression using ELISA technology.Data from the assay component BSK_3C_Thrombomodulin was analyzed into 1 assay endpoint. […]
The source made the active and inactive calls. How the source made its calls: active means hit-call score of the fitted dose curve at least 0.9, where 1 is the maximum; inactive means score below 0.9.
Output constraint: value belongs to t for active, f for inactive

Completed entries (count: 6):
Given `COC(=O)N(C(=O)N1CO[C@@]2(C(=O)OC)Cc3cc(Cl)ccc3C2=N1)c1ccc(OC(F)(F)F)cc1` , state the outcome it received in this test.
f

Given `Nc1cnn(-c2ccccc2)c(=O)c1Cl` , state the outcome it received in this test.
f

Given COCC(C)N(C(=O)CCl)c1c(C)csc1C (configuration not stated) , state the outcome it received in this test.
f

Given `O=P(O)(O)CCCl` , state the outcome it received in this test.
f

Given CCOc1cc(C(C)(C)C)ccc1C1COC(c2c(F)cccc2F)=N1 (configuration not stated) , state the outcome it received in this test.
f

Given CC(C)=CC1C(C(=O)OCc2coc(Cc3ccccc3)c2)C1(C)C (configuration not stated) , state the outcome it received in this test.
f

New cases:
Given `Nc1c(Cl)c(F)nc(OCC(=O)O)c1Cl` , state the outcome it received in this test.
f

Given COCc1cnc(C2=NC(C)(C(C)C)C(=O)N2)c(C(=O)O)c1 (configuration not stated) , state the outcome it received in this test.
f

Given CCCN(CC)CC1COC2(CCC(C(C)(C)C)CC2)O1 (configuration not stated) , state the outcome it received in this test.
f

Given CCCC(=NOCC)C1=C(O)CC(CC(C)SCC)CC1=O (configuration not stated) , state the outcome it received in this test.
f

Given CC1(C)C(C(=O)OC(C#N)c2cccc(Oc3ccccc3)c2)C1(C)C (configuration not stated) , state the outcome it received in this test.
f

Given `COP(=S)(OC)Oc1ccc([N+](=O)[O-])c(C)c1` , state the outcome it received in this test.
f

Given CCOC(=O)C(C)OC(=O)c1cc(Oc2ccc(C(F)(F)F)cc2Cl)ccc1[N+](=O)[O-] (configuration not stated) , state the outcome it received in this test.
f

Given `COC(=O)NS(=O)(=O)c1ccc(N)cc1` , state the outcome it received in this test.
f

Given `CCNC(=O)NC(=O)C(C#N)=NOC` , state the outcome it received in this test.
f

Given O=C1C2CC=CCC2C(=O)N1SC(Cl)(Cl)Cl (configuration not stated) , state the outcome it received in this test.
f

Given CC(C)(C)C(=O)C(Oc1ccc(Cl)cc1)n1cncn1 (configuration not stated) , state the outcome it received in this test.
f

Given `CCOc1nc(F)cc2nc(S(=O)(=O)Nc3c(Cl)cccc3Cl)nn12` , state the outcome it received in this test.
f

Given `OC(c1ccc(Cl)cc1)(c1ccc(Cl)cc1)C(Cl)(Cl)Cl` , state the outcome it received in this test.
t

Given `Cc1cc(C)nc(Nc2ccccc2)n1` , state the outcome it received in this test.
f

Given `COC(=O)NC(=S)Nc1ccccc1NC(=S)NC(=O)OC` , state the outcome it received in this test.
t

Given `C=CCOC(=O)C(C)(C)OC(=O)c1cc(-n2c(=O)cc(C(F)(F)F)n(C)c2=O)ccc1Cl` , state the outcome it received in this test.
f
